Molecular target: murine langerin CRD (Mus musculus, UniProt Q8VBX4)
Construct: Murine langerin CRD (amino acids: 191–331) was cloned; made in house; host or cells: E. coli BL21
Assay: 19F R2-filtered NMR assay with carbohydrate reporter ManNAcF3
Format: binding
Conditions: 25 mM MES/NaOH, 40 mM NaCl, 5 mM CaCl2, pH 6.0; 50 μM protein; read-out: K D of the carbohydrate reporter
Description: ^19F-NMR and ^19F-R2-filtered NMR experiments were conducted on a Bruker UltraShield 500 MHz spectrometer at 298 K. Spectra were processed in MestReNova 12.0, and data analysis was performed with GraphPad Prism version 10.2.0 for Windows (GraphPad Software, Boston, Massachusetts, USA, www.graphpad.com). Relaxation rates R 2,obs were determined with the CPMG pulse sequence, eq shown below. T represents the relaxation time, and I 0 is the integral at a T value of 0 s. […]
quantity_kind: Kd (mM)
Express your answer in mM, writing the number without its unit.

Ask | Item C#CCO[C@H]1O[C@H](CO)[C@@H](O)[C@H](O)[C@@H]1NC(=O)C(F)(F)F with murine langerin CRD (Mus musculus, UniProt Q8VBX4) - Kd?
Reply | 28

---

biological target: murine langerin CRD (Mus musculus); construct: Murine langerin CRD (amino acids: 191–331) was cloned; made in house; host or cells: E. coli BL21; test: 43Ca NMR assay of Ca2+ binding to langerin in the presence of inhibitors; design: unit not given here; conditions: Ca2+ + langerin + 400 μM inhibitor, pH 6.0; free 0.89, langerin only 1.94
Reported Linewidth ∆ν (Table S1, 43Ca NMR) values are given for each entry in this list.
The response must contain the number and no unit.

smiles: Cc1csc2ncc(C(=O)O)c(=O)n12
numeric_result: 1.79

smiles: Cc1sc2ncc(C(=O)O)c(=O)n2c1C
numeric_result: 1.78

smiles: O=C(O)c1cnc2sccn2c1=O
numeric_result: 2.80

Ask | Find the recorded Linewidth ∆ν (Table S1, 43Ca NMR) belonging to NCCNC(=O)c1cnc2ccccn2c1=O and report it.
Reply | 1.64

---

target: murine langerin CRD (Mus musculus); construct: Murine langerin CRD (amino acids: 191–331) was cloned; made in house; host or cells: E. coli BL21; test: ITC titration of inhibitors into murine langerin CRD; type: binding; details: ITC, Ca2+-depleted protein, 25 mM MES/NaOH pH 6.0, 40 mM NaCl, 5% DMSO, 278.15 K; read-out: K D [single-site model] (A + B ↔ AB), Ca^2+ absent
quantity_kind: Kd (µM)
Express your answer in µM, writing the number without its unit.

Illustrative cases are given below, each with its answer.
compound: NCCNC(=O)c1cnc2ccccn2c1=O [Compound 4]
numeric_result: 200

compound: Cc1csc2ncc(C(=O)O)c(=O)n12 [Compound 2]
numeric_result: 19

compound: O=C(O)c1cnc2sccn2c1=O [Compound 1]
numeric_result: 1100

Okay, next one:
Ask | Find the recorded Kd belonging to Cc1sc2ncc(C(=O)O)c(=O)n2c1C [Compound 3] and report it.
Reply | 53

---

target: murine langerin CRD (Mus musculus); construct: Murine langerin CRD (amino acids: 191–331) was cloned; made in house; host or cells: E. coli BL21; assay: 43Ca NMR assay of Ca2+ binding to langerin in the presence of inhibitors; set-up: unit not given here; conditions: Ca2+ + langerin + 400 μM inhibitor, pH 6.0; free 0.175, langerin-bound 0.116
quantity_kind: Chemical shift δ (Table S1, 43Ca NMR)
The response must contain the number and no unit.

smiles: Cc1sc2ncc(C(=O)O)c(=O)n2c1C
Chemical shift δ (Table S1, 43Ca NMR): 0.139

smiles: O=C(O)c1cnc2sccn2c1=O
Chemical shift δ (Table S1, 43Ca NMR): 0.173

smiles: Cc1csc2ncc(C(=O)O)c(=O)n12
Chemical shift δ (Table S1, 43Ca NMR): 0.154

Ask | Find the recorded Chemical shift δ (Table S1, 43Ca NMR) belonging to NCCNC(=O)c1cnc2ccccn2c1=O and report it.
Reply | 0.174

---

Molecular target: murine langerin CRD (Mus musculus)
Construct: Murine langerin CRD (amino acids: 191–331) was cloned; made in house; host or cells: E. coli BL21
Sequence (Q8VBX4 191-331): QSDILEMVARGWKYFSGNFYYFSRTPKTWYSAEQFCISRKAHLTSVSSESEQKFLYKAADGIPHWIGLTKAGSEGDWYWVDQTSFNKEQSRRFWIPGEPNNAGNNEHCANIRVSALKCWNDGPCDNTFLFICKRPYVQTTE
Test: ITC titration of inhibitors into murine langerin CRD
Assay type: binding
Conditions: ITC, 5 mM CaCl2, pH 6.0, 5% DMSO, 278.15 K; competition between inhibitor and Ca2+ assumed; read-out: K D [competitive binding model] (A + B + C ↔ AB + C ↔ AC + B), Ca^2+ present
quantity_kind: pKd
Just the number, please; pKd means minus log10 of the concentration in mol/L.

Illustrative cases are given below, each with its answer.
smiles: Cc1sc2ncc(C(=O)O)c(=O)n2c1C
pKd: 4.77
//
smiles: NCCNC(=O)c1cnc2ccccn2c1=O
pKd: 3.32

Okay, next one:
Ask | Item Cc1csc2ncc(C(=O)O)c(=O)n12 with murine langerin CRD (Mus musculus) - pKd?
Reply | 4.09

---

Reported Integral (relative to the ligand present free state) (Table S1, 43Ca NMR) values are given for each entry in this list.
biological target: murine langerin CRD (Mus musculus, UniProt Q8VBX4); construct: Murine langerin CRD (amino acids: 191–331) was cloned; made in house; host or cells: E. coli BL21; experiment: 43Ca NMR assay of Ca2+ binding to langerin in the presence of inhibitors; details: Ca2+ + langerin + 400 μM inhibitor, pH 6.0; free 1, langerin only 0.147

smiles: NCCNC(=O)c1cnc2ccccn2c1=O
system_tested: murine langerin CRD (Mus musculus, UniProt Q8VBX4)
result: 0.316

Ask | Find the recorded Integral (relative to the ligand present free state) (Table S1, 43Ca NMR) belonging to Cc1sc2ncc(C(=O)O)c(=O)n2c1C and report it.
Reply | 0.344

Ask | And Cc1csc2ncc(C(=O)O)c(=O)n12 ?
Reply | 0.324

Ask | And O=C(O)c1cnc2sccn2c1=O ?
Reply | 0.355

---

test: Solubility assessment using 1H NMR; assay type: physicochemical; conditions: aqueous protein storage buffer, aqueous buffer, kinetic from dmso stock, DSS reference, titrated from DMSO stock into protein buffer
quantity_kind: solubility

Ask | Find the recorded solubility belonging to Cc1sc2ncc(C(=O)O)c(=O)n2c1C and report it.
Reply | ≥ 1000 µM

---

biological target: murine langerin CRD (Mus musculus); construct: Murine langerin CRD (amino acids: 191–331) was cloned; made in house; host or cells: E. coli BL21; test: ITC titration of inhibitors into murine langerin CRD; format: binding; conditions: based on the best affinities from both conditions (Ca2+ present/absent); Gibbs free energy / number of non-hydrogen atoms
quantity_kind: Ligand efficiency (LE) (kcal·mol^–1·HA^–1)
Express your answer in kcal·mol^–1·HA^–1, writing the number without its unit.

Illustrative cases are given below, each with its answer.
smiles: Cc1csc2ncc(C(=O)O)c(=O)n12
Ligand efficiency (LE), kcal·mol^–1·HA^–1: 0.46
//
smiles: O=C(O)c1cnc2sccn2c1=O
Ligand efficiency (LE), kcal·mol^–1·HA^–1: 0.31
//
smiles: Cc1sc2ncc(C(=O)O)c(=O)n2c1C
Ligand efficiency (LE), kcal·mol^–1·HA^–1: 0.44

Okay, next one:
Ask | Find the recorded Ligand efficiency (LE) belonging to NCCNC(=O)c1cnc2ccccn2c1=O and report it.
Reply | 0.27

---

Reported Kd values are given for each entry in this list.
Biological target: murine langerin CRD (Mus musculus)
Construct: Murine langerin CRD (amino acids: 191–331) was cloned; made in house; host or cells: E. coli BL21
Sequence (Q8VBX4 191-331): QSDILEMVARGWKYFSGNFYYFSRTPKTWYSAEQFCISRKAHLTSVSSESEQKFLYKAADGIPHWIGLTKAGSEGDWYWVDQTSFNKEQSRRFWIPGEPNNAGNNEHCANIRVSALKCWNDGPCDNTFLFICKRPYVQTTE
Test: ITC titration of inhibitors into murine langerin CRD
Assay type: binding
Conditions: ITC, 5 mM CaCl2, 25 mM MES/NaOH pH 6.0, 40 mM NaCl, 5% DMSO, 278.15 K; mean ± standard error of fit; read-out: K D [single-site model] (A + B↔AB), Ca^2+ present
Express your answer in µM, writing the number without its unit.

Illustrative cases are given below, each with its answer.
smiles: NCCNC(=O)c1cnc2ccccn2c1=O
quantity_kind: Kd
numeric_result: 8500
--
smiles: Cc1sc2ncc(C(=O)O)c(=O)n2c1C
quantity_kind: Kd
numeric_result: 150

Okay, next one:
Ask | Find the recorded Kd belonging to Cc1csc2ncc(C(=O)O)c(=O)n12 and report it.
Reply | 400
